Source: patent EP0297946A2

experiment: Maximum tolerated single bolus dose (MTD) of CB by vehicle and route of administration; type: in vivo, CD2F₁ mice; conditions: mouse, in vivo, ip, CB suspension in carboxymethyl cellulose(1%)/Tween-20 (2%), single bolus, CD2F₁ mice
endpoint_name: MTD (mg/kg)
Output spec: scalar in mg/kg, unitless text.

The molecule identified as C=C1C(C)C2C(Cc3ccccc3)NC(=O)C23OC(=O)C=CC(O)CCCC(C)CC=CC3C1O (stereo not shown) [CB, cytochalasin B] registered its MTD at 50

====

test: Maximum tolerated single bolus dose (MTD) of CB by vehicle and route of administration; type: in vivo, CD2F₁ mice; details: mouse, in vivo, ip, in DMSO
endpoint_name: MTD (mg/kg)
Output spec: scalar in mg/kg, unitless text.

The compound identified as C=C1C(C)C2C(Cc3ccccc3)NC(=O)C23OC(=O)C=CC(O)CCCC(C)CC=CC3C1O (stereo not shown) registered its MTD at 25
